- target.or.system: ligand binding domain of human FXR (Homo sapiens, UniProt Q96RI1)
- Construct: purchased Thermofisher (LanthaScreen) PV4833
- Sequence (Q96RI1 262-486 limits assumed): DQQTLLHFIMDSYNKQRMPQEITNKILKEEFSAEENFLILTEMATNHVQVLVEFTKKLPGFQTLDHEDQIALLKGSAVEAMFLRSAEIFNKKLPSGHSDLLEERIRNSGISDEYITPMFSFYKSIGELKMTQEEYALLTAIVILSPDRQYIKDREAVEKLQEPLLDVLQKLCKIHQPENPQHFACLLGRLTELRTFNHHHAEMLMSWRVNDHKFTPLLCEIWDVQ
- assay: biochemical
- stated.conditions: extent of activation relative to GW4064; read-out: Ligand Binding % Efficacy
- Method: The affinity of FXR ligands for the ligand binding domain of FXR was determined using a commercially available human FXR ligand binding assay (LanthaScreen, Thermofisher Cat #PV4833). […] Test compounds are dissolved in DMSO and a 3-fold serial dilution series is generated, then further diluted into assay buffer. […] The reaction is incubated at room temperature for 1 hour, then the FRET signal is measured as the ratio of the 520 nm/495 nm emission following excitation at 340 nm. […]
attribute.measured: Emax (%)
The response must be a number in % with no trailing unit.

Query block: Please give the measured Emax for this compound: O=C(NS(=O)(=O)C1CCOCC1)c1ccc(N2C(=O)[C@@H]3C[C@H]2C[C@H]3OCc2c(C3CC3)cnn2-c2c(Cl)cccc2Cl)cc1 [Compound I-26]
Result block: 169

Query block: Please give the measured Emax for this compound: O=C(O)c1cc(C2CCOCC2)c2nc(N3C[C@@H]4C[C@H]3C[C@H]4OCc3c(C4CC4)cnn3-c3c(Cl)cccc3Cl)sc2c1 [Compound I-32]
Result block: 128

Query block: Please give the measured Emax for this compound: Cc1cccc(Cl)c1-n1ncc(C2CC2)c1CO[C@@H]1C[C@@H]2C[C@H]1CN2c1ccc(CCC(=O)O)cc1F [Compound I-37]
Result block: 176

Query block: Please give the measured Emax for this compound: O=C(NS(=O)(=O)C1CCOCC1)c1ccc(N2C[C@@H]3C[C@H]2C[C@H]3OCc2c(-c3c(Cl)cccc3Cl)cnn2C2CC2)cc1 [Compound I-46]
Result block: 170

Query block: Please give the measured Emax for this compound: O=C(NS(=O)(=O)C1CCOC1)c1ccc(N2C[C@@H]3C[C@H]2C[C@H]3OCc2c(C3CC3)cnn2-c2c(Cl)cccc2Cl)cc1 (stereo partly drawn) [Compound I-23]
Result block: 164

Query block: Please give the measured Emax for this compound: O=C(O)c1cc([C@@H]2CCOC2)c2nc(N3C[C@@H]4C[C@H]3C[C@H]4OCc3c(C4CC4)nnn3-c3c(Cl)cccc3Cl)sc2c1 (single isomer, unassigned) [Compound I-59]
Result block: 137
